Property: TGI; scope: individual compounds
System: SK-MEL-28 melanoma
Assay: NCI tumour cell line growth inhibition, 48 h
Property: TGI

[[record]]
compound = "CN(Cc1cnc(N)nc1N)c1ccc(C(=O)O)cc1"
measured_result = "> 100 µM"

[[record]]
compound = "C=CCN1C(=O)CC1N(CC=C)S(=O)(=O)c1ccc(C)cc1 (stereo not drawn)"
measured_result = "> 100 µM"

[[record]]
compound = "C=C1CC(Cn2ccc(=O)[nH]c2=O)(c2ccc(-c3ccccc3)cc2)OC1=O (stereo not drawn)"
measured_result = "5.34 µM"


====

System: SNB-19 CNS
Test: NCI tumour cell line growth inhibition, 48 h
Property: GI50; scope: individual compounds
Property: GI50

[[record]]
compound_structure = "O=C(Cn1c(=O)c(-c2ccccc2)nc2ccccc21)c1ccc(Cl)cc1"
study_system = "SNB-19 CNS"
measured_result = "42.2 µM"

[[record]]
compound_structure = "Cc1cc(Cc2cc(C)c(O)c(C)c2)cc(C)c1O"
study_system = "SNB-19 CNS"
measured_result = "7.81 µM"

[[record]]
compound_structure = "CC(=O)[CH-]C(=O)c1ccccc1.CC(=O)[CH-]C(=O)c1ccccc1.COc1cccc([O-])c1[O-].[Ti+4]"
study_system = "SNB-19 CNS"
measured_result = "64.3 µM"

[[record]]
compound_structure = "CN(CCC#N)c1ccc(/C=C(\\C#N)c2cccc(C(F)(F)F)c2)cc1"
study_system = "SNB-19 CNS"
measured_result = "17 µM"

[[record]]
compound_structure = "CC(=O)Nc1ccc(-c2c3nc(c(-c4cc5ccccc5[n+](C)c4)c4ccc([nH]4)c(-c4ccc(NC(C)=O)cc4)c4nc(c(-c5cc6ccccc6[n+](C)c5)c5ccc2[nH]5)C=C4)C=C3)cc1"
study_system = "SNB-19 CNS"
measured_result = "10.9 µM"


====

System: HCT-116 colon
Test: NCI tumour cell line growth inhibition, 48 h
Property: TGI

[[record]]
compound = "Cc1cccc2[nH]c3cc(O)cc(O)c3c(=O)c12"
property = "TGI"
measured_result = "> 10 µM"

[[record]]
compound = "O=[N+]([O-])c1ccc(N=Nc2c(O)ccc3cc(S(=O)(=O)O)ccc23)cc1"
property = "TGI"
measured_result = "> 100 µM"

[[record]]
compound = "O=c1[nH][nH]c(=O)[nH]1"
property = "TGI"
measured_result = "> 100 µM"

[[record]]
compound = "Cc1ccc(N/C(Sc2ccccc2)=C(/C(Cl)=C(Cl)Cl)[N+](=O)[O-])c(C)c1"
property = "TGI"
measured_result = "30.8 µM"

[[record]]
compound = "N=Nc1c(OC(=O)Nc2ccccc2)[nH]c2ccccc12"
property = "TGI"
measured_result = "31.6 µM"

[[record]]
compound = "CN1CCN(CCCOc2cccc3nc(Nc4ccc(Cl)c(F)c4)ccc23)CC1"
property = "TGI"
measured_result = "3.03 µM"

[[record]]
compound = "CCC(C)C(C(=O)N/N=C1/SCC(=O)N1C)C(=O)N/N=C1/SCC(=O)N1C (configuration not stated)"
property = "TGI"
measured_result = "> 100 µM"

[[record]]
compound = "COc1ccc(/C(CCl)=C(\\Nc2ccccc2)c2ccc(OC)c(OC)c2)cc1OC"
property = "TGI"
measured_result = "> 100 µM"

[[record]]
compound = "Cc1nc2ccccc2c(=O)n1/N=C(\\N=Nc1cc(Cl)ccc1Cl)c1cccc(-c2ccco2)c1"
property = "TGI"
measured_result = "> 100 µM"

[[record]]
compound = "O=C(Cc1nc2ccccc2c(=O)n1-c1c(Cl)cccc1Cl)c1ccncc1"
property = "TGI"
measured_result = "39.7 µM"

[[record]]
compound = "N#CNC(N)=NCCO"
property = "TGI"
measured_result = "> 100 µM"

[[record]]
compound = "Nc1ncnc2c1ncn2C1OC(CSC(F)(F)F)C(O)C1O (configuration not stated)"
property = "TGI"
measured_result = "> 100 µM"


====

Property: TGI; scope: individual molecules
Test system: LXFL 529 NSCLC
Assay: NCI tumour cell line growth inhibition, 48 h
Property: TGI

[[record]]
molecule = "COC(=O)C1CC(=O)CCC1c1ccccc1 (stereo not given)"
measured_result = "> 100 µM"

[[record]]
molecule = "COC1C(O)C(C)OC(OC2C(Oc3cccc4c(O)c5c(=O)oc6ccc(C)c7c(=O)oc(c34)c5c67)OC(C)C3O[C@H](c4ccccc4)OC32)C1O (stereo not given in full)"
measured_result = "3.18 µM"

[[record]]
molecule = "N#CNC(N)=NCCO"
measured_result = "> 100 µM"

[[record]]
molecule = "N#CC(c1ccc(Cl)cc1)c1c(O)nc2ccc(=N)cc-2n1O (stereo not given)"
measured_result = "> 100 µM"

[[record]]
molecule = "C=CCC1C(=O)C(C(=O)OC)N2CCc3c([nH]c4ccccc34)C12 (stereo not given)"
measured_result = "> 100 µM"


====

Tested on: MALME-3M melanoma
Test: NCI tumour cell line growth inhibition, 48 h
Property: TGI; scope: individual molecules
Property: TGI

[[record]]
molecule = "CCC(CS(=O)(=O)O)[N+](=O)[O-] (stereo unspecified)"
study_system = "MALME-3M melanoma"
property = "TGI"
measured_result = "> 100 µM"

[[record]]
molecule = "O=C1CSC(/C(=C/c2ccccc2)c2nc3ccccc3[nH]2)=N1"
study_system = "MALME-3M melanoma"
property = "TGI"
measured_result = "> 100 µM"

[[record]]
molecule = "O=C(O)c1c[nH]c2c(=O)[nH]cnc12"
study_system = "MALME-3M melanoma"
property = "TGI"
measured_result = "> 100 µM"

[[record]]
molecule = "CC(CN(C)C)C(=O)c1ccccc1C(=O)O (stereo unspecified)"
study_system = "MALME-3M melanoma"
property = "TGI"
measured_result = "83 µM"

[[record]]
molecule = "O=C(N/C(=C\\c1ccccc1[N+](=O)[O-])c1nc2ccccc2[nH]1)c1ccccc1"
study_system = "MALME-3M melanoma"
property = "TGI"
measured_result = "> 100 µM"

[[record]]
molecule = "OC(CC(CC(O)(C(F)(F)Cl)C(F)(F)Cl)=NNc1ccccc1)(C(F)(F)Cl)C(F)(F)Cl"
study_system = "MALME-3M melanoma"
property = "TGI"
measured_result = "7.14 µM"


====

System: TK-10 renal
Assay: NCI tumour cell line growth inhibition, 48 h
Property: TGI

[[record]]
compound = "O=C1CSC(/C=C/c2ccccc2)N1c1ccc(-c2ccc(-n3c(-c4ccccc4)nc4ccccc4c3=O)cc2)cc1 (stereo unspecified)"
measured_result = "> 100 µM"

[[record]]
compound = "C=C(C)C#CC(O)(C(=O)OC1CCN(C)CC1)C(C)C (stereo unspecified)"
measured_result = "> 100 µM"

[[record]]
compound = "O=S(=O)(C(=Ic1ccccc1)S(=O)(=O)C(F)(F)C(F)(F)C(F)(F)C(F)(F)F)C(F)(F)C(F)(F)C(F)(F)C(F)(F)F"
measured_result = "29.9 µM"

[[record]]
compound = "CCCCC1Cc2ccccc2-c2n1c1ccccc1[n+]2C (stereo unspecified)"
measured_result = "> 100 µM"

[[record]]
compound = "COc1ccc(-c2nn(-c3ccc(NC(=O)c4ccc(Cl)c(C(F)(F)F)c4)cc3)cc2-c2ccncc2)cc1Cl"
measured_result = "> 32.8 µM"

[[record]]
compound = "Cc1cccc2[nH]c3cc(O)cc(O)c3c(=O)c12"
measured_result = "> 10 µM"

[[record]]
compound = "CCOC(=O)[C@@H]1C[C@H]1c1ccc(O)c(O)c1"
measured_result = "> 100 µM"

[[record]]
compound = "CCNC(C)(C)C(SS)c1ccc(Br)cc1 (stereo unspecified)"
measured_result = "> 100 µM"

[[record]]
compound = "N=C(N)C1CN(CCc2cnc[nH]2)C(=O)NC1=O (stereo unspecified)"
measured_result = "> 100 µM"

[[record]]
compound = "O=c1[nH][nH]c(=O)[nH]1"
measured_result = "> 100 µM"

[[record]]
compound = "COc1ccc(-c2cc(-c3ccc(Cl)cc3)n(C3OC(CO)C(O)C(O)C3O)c(=S)c2C#N)cc1 (stereo unspecified)"
measured_result = "82.8 µM"

[[record]]
compound = "N#Cc1nc(CSCc2ccccc2)oc1N"
measured_result = "> 100 µM"

[[record]]
compound = "CCN(CC)C(=O)CC1=C(C)/C(=C/c2[nH]c(-c3ccc[nH]3)cc2OC)N=C1C"
measured_result = "17.3 µM"

[[record]]
compound = "CC1C2=C(CC(C)(C)CC2=O)NC2=C1C(=O)CC(C)(C)C2"
measured_result = "> 100 µM"

[[record]]
compound = "C[C@@]12c3c4ccc(C=O)c3Oc3ccc(C=O)c(c31)Oc1c(C=O)ccc(c12)O4"
measured_result = "> 100 µM"

[[record]]
compound = "COc1cc2ccccc2c2cc([N+](=O)[O-])oc12"
measured_result = "5.44 µM"

[[record]]
compound = "[C-]#[O+].[Cl][Sn]([Cl])[Cl].[Cl][Sn]([Cl])[Cl].[Pt].c1ccc([PH+](c2ccccc2)c2ccccc2)cc1.c1ccc([PH+](c2ccccc2)c2ccccc2)cc1"
measured_result = "52.3 µM"

[[record]]
compound = "CCCCN(CCCC)c1ccc(C(=N)c2ccc(N(C)C)cc2)cc1"
measured_result = "1.84 µM"

[[record]]
compound = "Cc1c(/C=N/NC(=S)Nc2cccc(Cl)c2)c(=O)n(-c2ccccc2)n1C"
measured_result = "44.3 µM"

[[record]]
compound = "O=[N+]([O-])c1cc([N+](=O)[O-])c(Cl)c(Cl)c1Cl"
measured_result = "3.65 µM"

[[record]]
compound = "c1cc(-c2csc(-c3ccsc3)c2)cs1"
measured_result = "> 100 µM"

